Data provenance is PubChem BioAssay AID1259422.

EXPERIMENT_SUMMARY: TEAD-YAP interaction inhibition, primary screen, TEAD-YAP interaction inhibitor project, luminescence, HEK-TIYL cells (AID 1259422);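 also: 0% = median of test compound wells and 100% = reference inhibitor wells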
EXPERIMENTAL_CONDITIONS: TEAD-Gal4/YAP UAS-luciferase luminescence, at 9.12 µM, hits give high values
Hit rate of the full screen: of about 640,000 compounds, about 9,300 (1.5%) were called active. The list comes from a sample in which actives are over-represented; it also holds close analogues and randomly drawn compounds.
inhibition for assorted compounds
Return type: number; implicit unit %.

• CCc1ccc(OCC(=O)NCc2ccncc2)c(Br)c1 = -4.34
• O=C(Nc1ccc(Cl)c(Cl)c1)c1ccc(C(=O)Nc2ccc(Cl)c(Cl)c2)cc1 = -3.3
• CCc1ccc(OCC(=O)Nc2nc(C)c(C)s2)c(Br)c1 = 77.7
• CS(=O)(=O)c1ccc(C(=O)OCC(=O)c2ccc3c(c2)OCCO3)cc1[N+](=O)[O-] = 2.27

In the following, a different compound is considered.
For record Cc1ccc(OCC(=O)Nc2nc(-c3ccccc3)cs2)c(Br)c1 the listed inhibition is 5.91

----------
EXPERIMENT_SUMMARY: TEAD-YAP interaction inhibition, primary screen, TEAD-YAP interaction inhibitor project, luminescence, HEK-TIYL cells (AID 1259422);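 also: 0% = median of test compound wells and 100% = reference inhibitor wells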
EXPERIMENTAL_CONDITIONS: TEAD-Gal4/YAP UAS-luciferase luminescence, at 9.12 µM, hits give high values
Out of some 640,000 compounds screened, about 9,300 (1.5%) were called active. The list comes from a sample in which actives are over-represented; it also holds close analogues and randomly drawn compounds.
inhibition for assorted molecules
Return type: number; implicit unit %.

Examples with answers:
• Cc1cccc(-n2nc3c(c2NC(=O)c2ccc4c(c2)OCO4)CSC3)c1C = 3.84
• O=C1CCC(=O)N1CC(=O)N(Cc1ccccn1)c1nc2ccccc2s1 = 18.1
• Cc1cc(C(=O)N(Cc2ccccn2)c2nc3ccccc3s2)on1 = 69.7
• CCc1cccc2sc(N(Cc3ccccn3)C(=O)CSCc3ccccc3)nc12 = 2.11

In the following, a different molecule is considered.
For record CC(=O)N(C1=C(N2CCOCC2)C(=O)c2ccccc2C1=O)C1CCCCC1 the listed inhibition is 13.4

----------
EXPERIMENT_SUMMARY: TEAD-YAP interaction inhibition, primary screen, TEAD-YAP interaction inhibitor project, luminescence, HEK-TIYL cells (AID 1259422);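 also: 0% = median of test compound wells and 100% = reference inhibitor wells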
EXPERIMENTAL_CONDITIONS: TEAD-Gal4/YAP UAS-luciferase luminescence, at 9.12 µM
Among all 640,000 compounds or so, about 9,300 (1.5%) were called active. Cut-off read from the data, not from the text of the source: active = inhibition above about 32%; inactive = the rest. The entries come from a sample that favours actives as a whole.
Respond only with the outcome that fits, drawn from 1 = active, -1 = inactive

* N#Cc1ccc(C(=O)OCC(=O)Nc2ccc3c(c2)C(=O)c2ccccc2C3=O)cc1 | -1
* CC(=O)c1cccc(NC(=O)c2nn3c(C(F)(F)F)cc(-c4ccc(Br)cc4)nc3c2Cl)c1 | -1
* CCN1CCN(c2ncc(C(=O)Nc3ccc(OC)c(Cl)c3)c3ccccc23)CC1 | -1
* CSc1nnc(-c2ccncc2)n1CCCN1CCCC1=O | 1
* COc1ccc2cc(Br)ccc2c1CC(=O)N(C)C1CCN(C)CC1 | -1

Write down the call the test reported for this molecule. Item: O=C(N/N=C/c1c(O)ccc2ccccc12)c1cc([N+](=O)[O-])cc([N+](=O)[O-])c1
-1
